assay: yeast display, Sf9 membrane polyspecificity reagent, FACS + sequencing; frameworks hold sequencing errors
value-type: polyreactivity (PSR sort gate)

Sample records with polyreactivity (PSR sort gate):
| input-sequence | value-type | value-reported |
| --- | --- | --- |
| QVQLVESGGGLVQAGGSLRLSCADSGFTFSLNTMGWYRQAPGKERELVAAINSGDSTYADSVKGRFTISRDNAKNTVYLQMNSLKPEDTAVYYCNADPDWWYPYIYWGQGTQVTVSS | polyreactivity (PSR sort gate) | low polyreactivity |
| QVQLVESVGGLVQAGGSLRLICAASGYTFSRNAMGWYRPAPGKERELVAVISSGGSTYYADSVKGRFTISRDNAKNTVYLQMNSLKPEDTAVYYCNTGVYRYGYWYDYWGQGTQVTVSS | polyreactivity (PSR sort gate) | high polyreactivity |
| QVQRVESWGGLVQAGGSLRLSCAASGFTFSDNAMGWYRQAPGKERELVAAISRRGGSTYYADSVKGRFTISRDNAKNTVYLQMNSLKPEVTAVYYCAAVRASSKVHTRTYDYWGQGTQVTVSS | polyreactivity (PSR sort gate) | high polyreactivity |
| QVQLVESGGGLVQAGGSLRLSCAASGSIFRSYAMGWYRQAPGKERELVAAISRRGGSTYYADSVKGRFTISRDNVKNTVYLQMNSLKPEDTAVYYCAADRTGPYDYWGQGTQVTVSS | polyreactivity (PSR sort gate) | high polyreactivity |
| QVQLVESGGGLVQAGGSLRLSCAASGRIFTGNSMGWYRQAPGKERELVAAITSSGGSTYYADSVKGRFTISRDNAKNTVYLQMNSLKPDDTAVYYCAALYSSWWSWYYYWGQGTQVTVSS | polyreactivity (PSR sort gate) | high polyreactivity |

Query: Please report polyreactivity (PSR sort gate) for the following sequence: QVQLVESGGGLVQAGGSLRLSCAASGSTFAYYAMGWYRPAPGTERELVAAISKSGGSTYYADSVKGRFTISRDNAKNTFYIQMISLKPEDTAVYYCAAGKFRYRSRFDFWGQGTQVTVSS
Result: high polyreactivity

* * *

assay: yeast display, Sf9 membrane polyspecificity reagent, FACS + sequencing; frameworks hold sequencing errors
value-type: polyreactivity (PSR sort gate)

Sample records with polyreactivity (PSR sort gate):
| input-sequence | polyreactivity (PSR sort gate) |
| --- | --- |
| QVQLVESGGGLVQAGGSLRLSCAASGFIFRYYAMGWYRQAPGKERELVAAISSRAGRTYADSVKGRFTISRDNAKYSVYLQMNSLKPEDTAVYYCAVRSKRKDVGYWGQGTQVTVSS | high polyreactivity |
| QVQLVESGGGLDQAGGSLRLSCAASGSTFVFYAMVWYIQAPGKEREFVAAITNSGSNTYYADSVKGRFTISRDNAKMTVNLQMNSLKPEDTAVYYCAARPFGRYRGRYYYWGQGTQVTVSS | high polyreactivity |
| QVQLVESGGGLVQAGGSLRLSCDASGSTFYYNAMGWYRQAPGKERELVADISRGGSTYYADSVKGRFTISRDNAKNTVYLQMNSLKPEDTAVYDCAAQTYLLSQWWWFDIDYGYWGQGTQVTVSS | low polyreactivity |
| QVQLVESGGGLVQAGGSLRLSCAASGIILYVNAMGWYRQAPGKERELVAAISWGGGSTYYADSVKGRFTISRDNAKNTVYLQMNSLKPEDTAVYYCAAEFWSGYPTYTYDYWGQGTQVTVSS | low polyreactivity |
| QVQLVESGGGLVEAGGSLRLSCADSGRIFLRNAMGWSRQAPGKERELVAAINRGGRTNYADSVKGRFTISRDNAKNTVYLQMNSLKPEDTAVYYCATERESPGYTEYDSWGQGTQVTVSS | low polyreactivity |

Query: Please report polyreactivity (PSR sort gate) for the following sequence: QVQLVESAGGLVQAGVSLRLSCAASGFTSSRNAMGWYRQAPGKERELVATISSGGDTYYADSVKGRFTISRDNAKNTVYLQMNTLKPEDTAVYYCNKDPLYAWGYDYWGQGTQVTVSS
Result: low polyreactivity

Query: Please report polyreactivity (PSR sort gate) for the following sequence: QVQLVESGGGLVQAGGSLRLSCAASGRTFGTNAMGWYRQAPGKERELVASIDLSADSTYYADSVKGRFTISRDNAKNTVYLQMNSLKPEDTAVYYCNKDGYPWPPNLDYWGQGTQVTVSS
Result: low polyreactivity

Query: Please report polyreactivity (PSR sort gate) for the following sequence: QVQLVESGGGLVQAGGSLRLSCAASGSTIKGYDMGWYRQAPGKERELVAAIDSGGSTYYADSVKGRFTISRDNAKNTVYLQMNSLKPEDTAVFYCAAERVSLYWVIFGYWGQGTQVTVSS
Result: low polyreactivity

Query: Please report polyreactivity (PSR sort gate) for the following sequence: QVQLVESGGRLVQAGGTLRLSCAASGRIFGYNAMGWYRQAPGKERHLVAVITSGGSKNYADSVKGRFTISRDNAKHTVYLQMNSVKPEDTAVYYCPRRIWDRWSYPVRVRYYYWGQGTQVTGSS
Result: high polyreactivity

Query: Please report polyreactivity (PSR sort gate) for the following sequence: QVQLVESGGGLVQAGGSLRLSCAASGSTFWKYVMGWYRPAPGKERELVAAITSRGGSTYADSVKGRFTISRDNAKNTVYLLMNSLKPEDTAVYYCAATKFWYYGYDYWGQGTQVTVSS
Result: low polyreactivity

Query: Please report polyreactivity (PSR sort gate) for the following sequence: QVQLVESGGGLVQAGGSLRLSCAASGSIFTFYAMGLYRQAPGKERELVAAISYRGGSTYYADSVKGRFTISRDNAKNTVYLQINSLKPEDTAVYYCAAARFPVFIQGYRMEYWGQGTQVTVSS
Result: low polyreactivity

Query: Please report polyreactivity (PSR sort gate) for the following sequence: QVQLVESGGGLVQAGGSLRLSCAASGIIFVRYTMGWYRQAPGKERELVAAISSSGGSTYYADSVKGRFTISRDNAKNTVYLQLNSLKPEDTAVYYCIAEIRDNNVGYDTDYDYWGQGSQVTVSS
Result: high polyreactivity

Query: Please report polyreactivity (PSR sort gate) for the following sequence: QVQLVESGGGLVQAGGSLRLSCAASGRTFLYYAMGWYRQAPGKERELVAGITSGGSTNYADSVKGRFTISRDNAKNTVYLQMNSLKPEETAVYYCAARYFPRIQYGRKGYDYWGQGTQVTVSS
Result: low polyreactivity

Query: Please report polyreactivity (PSR sort gate) for the following sequence: QVQLVESGGGLVQAGGSLRLSCASSGRTISHNAMGWYRQAPGKERELVAAISRSGGRTYYADSVKGRFTISRYNAKNTVYLQMNSLKPEDTAVYYCAAEYFDGSTYSYYYWGQGTQVTVSS
Result: high polyreactivity

* * *

assay: yeast display, Sf9 membrane polyspecificity reagent, FACS + sequencing; frameworks hold sequencing errors

| input-sequence | polyreactivity (PSR sort gate) |
| --- | --- |
| EEELVESGGGLVQAGGRLRLSCAASGRIFDYNAMGWYRQAPAKQRELVAVIDYSGDSTYYADSVKGRFTISRDNAKNTVYLQLISLKPEDTAVYYCNADSRYSYSDYGYWGQGTQVNVSS | low polyreactivity |
| QVQLVDSGAGLVQAGGSLRLSCAASGSIYYRYALGWYRQAPRQVRELVAAITQSTDSTYYADSVKGRFTISRDNAKNTVYLQMNSLKPEDTAVYYCAAYLVYYRPYAYGYWGQGTQVTVSS | low polyreactivity |
| QVQLVESGGGLVQAGGSLRLSCAASGSIFYGYAMGWYRQAPGKERELVASITSSGGSTYYADSVKGRFTISRDNAKNTVYLQMNSLKPEDTAVYYCNADGRPDWYVVRGGFEYWGQGTQVTVSS | low polyreactivity |

* * *

test: yeast display, Sf9 membrane polyspecificity reagent, FACS + sequencing; frameworks hold sequencing errors

| input-sequence | polyreactivity (PSR sort gate) |
| --- | --- |
| QVQLVESGRGLVQAGGSLRISCAASGRIFFYYTMGWYRQAPGRERELVAAINSTGATNYADSVKGRFTISRDNAKNTVYLQMNSLKPEDTAVYYCNAGTRYIFLYPPFLGAAFDYWGQGTQVTVSS | low polyreactivity |
| QVQLVDSGGGLVQAGGSLRLSCAASGRTFYFNAMGWYRQAPGKERELVAAITSSDSTYYADSVKGRFTISRDNAKNTVYLQMISLKPEDTAVYYCNADYFYWREMDYWGQGTQVTVSS | low polyreactivity |
| QVQLVESGGGLVQAGGSLRLSCAASGRTFTYYTMGWYRQAPGKERELVAAITWSGGRTYYADSVKGRFTISRDNAKNTVYLQMNSLKPEDTAVYYCAKPPQGTYDYWGQGTQVTVSS | low polyreactivity |

* * *

assay: yeast display, Sf9 membrane polyspecificity reagent, FACS + sequencing; frameworks hold sequencing errors
value-type: polyreactivity (PSR sort gate)

| input-sequence | value-type | value-reported |
| --- | --- | --- |
| QVQLVESGGGLVQAGGSLRLSCAATGRIFRTTAMGWYRQAPGTVRELVAAITFSGGGTYYADSVKGRFTISRDHAKNTGYLQMNSLKPEETAFYYCYADDSYDLSCFEDDYWGQGTQVTVSS | polyreactivity (PSR sort gate) | low polyreactivity |
| QVQLVESGGGLVQAGGSLRLSCAASGFIINGNDMGWYRQAPGKERELVAAISSSGGSTYYADSVKGRFTISRDNAKNTVYLQMNSRTPEDSAVYYCARRGKQVSGRYYYWGQGTQVSVSS | polyreactivity (PSR sort gate) | high polyreactivity |
| QVQLVESGGGLVQAGGSLRLSCAASGFIFYVNDMGWYRQAPGKERELVADISGGTSTNYADSVKGRFTMSRDNAKNTVYLQMNSLNPEDTAVYYCNKYVAYDYWGQGTQVTVSS | polyreactivity (PSR sort gate) | low polyreactivity |
| QVQLVESGGGLVQAGGSLRLSCASSGRIFAHNAMGWYSQAPGKERELVAAINSGGSTDYADSVKGRFTISRDNAKNTVYLQMNSLKPEDTAVYYCAADDPGSFPDDSWGQGTQGTVSS | polyreactivity (PSR sort gate) | low polyreactivity |
| QVQLVESGGGLVQAGGSLRLSCAASGITFQNYAMGWYRQSPGKERELVAAITRSGGRTYYADSVKGRFTISRDNAKNTVYLQINSLKPEDTAVYYCAFYGIGRPYWYDYWGQGTQVTVSS | polyreactivity (PSR sort gate) | high polyreactivity |

Query: Please report polyreactivity (PSR sort gate) for the following sequence: QVQLVESGGGLVQAGGSLRLSCAASGRIFYFYAMGWYRQAPGKERELVAAINIGGSTNYADSVKGRFTISRDNAKNTVYLQMNSLKPEDTAVYYCNAEAYSRSDYYRYDYWGQGTQVTVSS
Result: low polyreactivity

Query: Please report polyreactivity (PSR sort gate) for the following sequence: QVQLVESGGGLVQAGGSLRVSCAASGINFDYYVMGWYRQAPGKERELVAAISRSGDRTNYADSVKGRFTSSRDHEKYTVFLLMNSLKPEDTAVYYCAARVRIRGGGYDYWGQGTQVTVSS
Result: high polyreactivity

Query: Please report polyreactivity (PSR sort gate) for the following sequence: QVQLVESGVGIVQAGGSLRLSCAASGSTFRAYVMGWYRQAPGKERELVAVISSGGSTKYADSVKGRFTISRDNAKNTDYVQMNSLKPVDTAVYYCAARRASRHRYYPFDYWGQGTQVTVSS
Result: high polyreactivity

Query: Please report polyreactivity (PSR sort gate) for the following sequence: QVQLVESGAGLVQAGGSLRLSCAASGITFASYGMGWYRQAPGKERELVAAISQRGGRTYYADSVKGRFTISRDNAKNTVYLQMNRLKPEDTAVYYCAARTYTITGRSPQYLNAYGYWGQGTQVTVSS
Result: high polyreactivity

Query: Please report polyreactivity (PSR sort gate) for the following sequence: QVQLVESGGGLVQAGGSLRLSCAASGSTFGGYAMGWYRQAPGKERELVAAITWSGDTYYADSVKGRFTISRDYAKNTVYLQMNSLKPEDTAVYYCAASYLGFHMSYDYWGQGTQVNVSS
Result: high polyreactivity

Query: Please report polyreactivity (PSR sort gate) for the following sequence: QDQLVESGGGLVQAGGSLRLSCAASGRTFVSNGMGWYRQAPGKERELLADINDGDDTYYADSVKGRFTISRDNAKNTVYLQMNSLKPEDTAVYYCAADPYWFFPHYDSWGQGTQVTVSS
Result: low polyreactivity

Value source: the nanobody polyreactivity screen of Harvey et al. (2022)
